This collection of values is drawn from ChEMBL document CHEMBL1949672.

In this section we review reported Emax values for a set of compounds.
Experimental target: Adenosine receptor A2a (Homo sapiens)
Assay comment: Agonist activity at human A2A adenosine receptor expressed in CHO cells assessed as stimulation of forskolin-induced cAMP production at 10 uM preincubated for 45 mins prior forskolin treatment measured after 15 mins by liquid scintillation spectrometry relative to 2-[p-(2-carboxyethyl)phenylethylamino]-5'-N-ethylcarboxamido-adenosine
Format: functional, cell-based

[
  {
    "Smiles text": "CCNC(=O)[C@H]1O[C@@H](n2cnc3c(N)nc(NCCc4ccc(CCC(=O)N[C@@H](Cc5c[nH]c6ccccc56)C(=O)O)cc4)nc32)[C@H](O)[C@@H]1O",
    "Unit annotation": "%",
    "Emax": 95.8
  },
  {
    "Smiles text": "CCNC(=O)[C@H]1O[C@@H](n2cnc3c(N)nc(NCCc4ccc(CCC(=O)N[C@H](Cc5c[nH]cn5)C(=O)O)cc4)nc32)[C@H](O)[C@@H]1O",
    "Unit annotation": "%",
    "Emax": 106
  },
  {
    "Smiles text": "CCNC(=O)[C@H]1O[C@@H](n2cnc3c(N)nc(NCCc4ccc(CCC(=O)N[C@H](Cc5c[nH]c6ccccc56)C(=O)OC)cc4)nc32)[C@H](O)[C@@H]1O",
    "Unit annotation": "%",
    "Emax": 119
  }
]

* * *

Assay comment: Displacement of [1251]PAPAAPEC from A2A adenosine receptor expressed in bovine striatal membranes after 1 hr by gamma counting
Assay type: cell membranes, Bos taurus, Striatum, Membrane
pKi: −log10 of the molar value.

[
  {
    "Smiles text": "CCNC(=O)[C@H]1O[C@@H](n2cnc3c(N)nc(NCCc4ccc(CCC(=O)NCCNC(=S)Nc5ccc(N=C=S)cc5)cc4)nc32)[C@H](O)[C@@H]1O",
    "pKi": 8.15
  }
]

* * *

Experimental target: Adenosine receptor A3 (Homo sapiens)
Sequence (P0DMS8 whole entry): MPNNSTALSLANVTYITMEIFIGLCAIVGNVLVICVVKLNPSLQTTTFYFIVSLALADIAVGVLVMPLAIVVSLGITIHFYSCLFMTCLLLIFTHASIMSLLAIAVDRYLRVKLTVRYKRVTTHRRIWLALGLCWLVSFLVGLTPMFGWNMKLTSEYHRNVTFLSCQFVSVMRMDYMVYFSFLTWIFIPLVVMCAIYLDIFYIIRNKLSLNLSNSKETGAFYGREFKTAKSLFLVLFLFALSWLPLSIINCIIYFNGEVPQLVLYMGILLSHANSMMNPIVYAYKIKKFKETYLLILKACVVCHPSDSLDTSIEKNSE
Define the label as True when Ki is strictly less than 800 nM and as False in all remaining cases.

[
  {
    "Smiles text": "CCNC(=O)[C@H]1O[C@@H](n2cnc3c(N)nc(NCCc4ccc(CCC(=O)N[C@H](Cc5c[nH]c6ccccc56)C(=O)O)cc4)nc32)[C@H](O)[C@@H]1O",
    "Label class": "True"
  },
  {
    "Smiles text": "CCNC(=O)[C@H]1O[C@@H](n2cnc3c(N)nc(NCCc4ccc(CCC(=O)N[C@@H](Cc5c[nH]c6ccccc56)C(=O)O)cc4)nc32)[C@H](O)[C@@H]1O",
    "Label class": "True"
  },
  {
    "Smiles text": "CCNC(=O)[C@H]1O[C@@H](n2cnc3c(N)nc(NCCc4ccc(CCC(=O)N[C@H](Cc5c[nH]cn5)C(=O)O)cc4)nc32)[C@H](O)[C@@H]1O",
    "Label class": "True"
  },
  {
    "Smiles text": "CCNC(=O)[C@H]1O[C@@H](n2cnc3c(N)nc(NCCc4ccc(CCC(=O)N[C@H](Cc5ccccc5)C(=O)O)cc4)nc32)[C@H](O)[C@@H]1O",
    "Label class": "True"
  },
  {
    "Smiles text": "CCNC(=O)[C@H]1O[C@@H](n2cnc3c(N)nc(NCCc4ccc(CCC(=O)N[C@@H](CC(=O)O)C(=O)O)cc4)nc32)[C@H](O)[C@@H]1O",
    "Label class": "False"
  },
  {
    "Smiles text": "CCNC(=O)[C@H]1O[C@@H](n2cnc3c(N)nc(NCCc4ccc(CCC(=O)N[C@@H](Cc5cnc[nH]5)C(=O)O)cc4)nc32)[C@H](O)[C@@H]1O",
    "Label class": "False"
  },
  {
    "Smiles text": "CCNC(=O)[C@H]1O[C@@H](n2cnc3c(N)nc(NCCc4ccc(CCC(=O)N[C@@H](Cc5ccccc5)C(=O)O)cc4)nc32)[C@H](O)[C@@H]1O",
    "Label class": "True"
  }
]

* * *

In this section we review reported Ki values for a set of molecules.
Experimental target: Adenosine receptor A2a (Homo sapiens, UniProt P29274)
Sequence (P29274 whole entry): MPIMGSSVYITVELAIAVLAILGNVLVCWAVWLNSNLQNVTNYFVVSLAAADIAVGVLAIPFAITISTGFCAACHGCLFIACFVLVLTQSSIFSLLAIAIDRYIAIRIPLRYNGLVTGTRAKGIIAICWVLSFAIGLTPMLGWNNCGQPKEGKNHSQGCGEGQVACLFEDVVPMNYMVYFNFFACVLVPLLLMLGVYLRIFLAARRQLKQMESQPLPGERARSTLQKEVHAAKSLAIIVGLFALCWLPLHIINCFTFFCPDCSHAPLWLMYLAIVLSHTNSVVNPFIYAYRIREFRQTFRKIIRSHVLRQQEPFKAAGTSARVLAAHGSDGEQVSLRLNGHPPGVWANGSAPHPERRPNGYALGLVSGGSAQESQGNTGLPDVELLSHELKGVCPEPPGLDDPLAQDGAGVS
Assay comment: Binding affinity to A2A adenosine receptor

[
  {
    "Smiles text": "CCNC(=O)[C@H]1C[C@@H](n2cnc3c(N[C@H](CC)Cc4sccc4Cl)ccnc32)[C@H](O)[C@@H]1O",
    "Experimental target": "Adenosine receptor A2a (Homo sapiens, UniProt P29274)",
    "Unit annotation": "nM",
    "Ki": 56
  },
  {
    "Smiles text": "O=C(NCCN1CCCCC1)c1nc(NCC(c2ccccc2)c2ccccc2)c2ncn([C@@H]3O[C@H](CO)[C@@H](O)[C@H]3O)c2n1",
    "Experimental target": "Adenosine receptor A2a (Homo sapiens, UniProt P29274)",
    "Unit annotation": "nM",
    "Ki": 20.1
  },
  {
    "Smiles text": "COc1cc(OC)cc([C@@H](CNc2ncnc3c2ncn3[C@@H]2O[C@H](CO)[C@@H](O)[C@H]2O)c2ccccc2C)c1",
    "Experimental target": "Adenosine receptor A2a (Homo sapiens, UniProt P29274)",
    "Unit annotation": "nM",
    "Ki": 168
  }
]
